B1: tRNA (parent)
chain: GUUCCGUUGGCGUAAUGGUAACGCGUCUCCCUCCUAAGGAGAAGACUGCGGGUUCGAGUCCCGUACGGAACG

Variants of: B1
Assay: yeast fitness relative to wild type (ratio to wild type); higher = fitter; tRNA-Arg(CCU), competitive growth, 37 C, YPD
This sample holds only a part of the variants without activity.
Readout: yeast fitness

Consider the variant G17A C22G C27A A45U G56C G63C G67C and give its measured yeast fitness.
≤ 0.5

Consider the variant A20G A37C and give its measured yeast fitness.
0.929

Consider the variant G12C A20C A43C and give its measured yeast fitness.
≤ 0.5

Consider the variant U2C C4U G25C C29U G68A and give its measured yeast fitness.
≤ 0.5

Consider the variant U8G U13C A36C U53C and give its measured yeast fitness.
≤ 0.5

Consider the variant G12A C29G C66U and give its measured yeast fitness.
0.574

Consider the variant G25A G41C G58A and give its measured yeast fitness.
0.975

Consider the variant C4U C46U A69C and give its measured yeast fitness.
0.817

Consider the variant A14C C24U C29U A40U G68U and give its measured yeast fitness.
≤ 0.5

Consider the variant G6A A14U A57G U59C and give its measured yeast fitness.
≤ 0.5

Consider the variant U8G U28A C34G G39C A57G C66U and give its measured yeast fitness.
≤ 0.5

Consider the variant U3C C31U G39A G44A C61U and give its measured yeast fitness.
≤ 0.5

Consider the variant U3A G12A C24U A45U and give its measured yeast fitness.
≤ 0.5

Consider the variant G9A C22U and give its measured yeast fitness.
1.04

Consider the variant U16A C55G C61U and give its measured yeast fitness.
≤ 0.5

Consider the variant U2A U26A and give its measured yeast fitness.
1.06

Consider the variant C11A C24G U47G and give its measured yeast fitness.
≤ 0.5

Consider the variant U28A C31G C55A G68C and give its measured yeast fitness.
≤ 0.5

Consider the variant G48A G52C U54C and give its measured yeast fitness.
0.542

Consider the variant C30G C31U G56A C62U A69G and give its measured yeast fitness.
≤ 0.5

Consider the variant G6C C55U U59G A70U and give its measured yeast fitness.
≤ 0.5

Consider the variant C4U U28C C29U G63C A65U and give its measured yeast fitness.
≤ 0.5
